tested on: Wolbachia pipientis; assay: Anti-Wolbachia Cell-Based Screen; format: functional; parameters: scale not given: in the data most compounds retested in dose-response had high values; details: 5 µM
Hit rate of the full screen: of about 48,000 compounds, about 13,000 (27%) showed an effect of 50% or more. Some of the results follow.
assayMetric: Percent Effect (%)
Answers are plain numbers, in %.

Below, 8 compounds whose answers are already recorded.
1. N#Cc1ccnc(N2CCN(CC(O)c3ccccc3)CC2)c1 (centres undefined) = -34.32
2. NCc1n[nH]c(=O)n1-c1ccccc1Oc1ccccc1 = -5.025
3. CNC(=O)c1cccnc1NCCOc1ccccc1 = 11.05
4. CCC(c1ccccc1)N1CCN(C(=O)c2cc(C(N)=O)c[nH]2)CC1 (centres undefined) = -8.4
5. Cc1ncncc1C(=O)N1CCCN(Cc2cnn(C(C)C)c2)CC1 = -23.75
6. Cc1c(C(=O)N2CCCOCC2)nnn1-c1cccc2cnccc12 = 5.187
7. CCN(Cc1ccoc1)C(C(N)=O)c1ccc(C#N)cc1 (centres undefined) = 0.4454
8. CCCc1n[nH]c(=O)n1Cc1ccccc1F = -4.193

State recorded Percent Effect for all listed compounds.
1. CC(C(=O)N1CCCN(Cc2cnn(C(C)C)c2)CC1)n1ccnc1 (centres undefined)
2. Cc1cc(CN(C)C(=O)C(c2ccccc2C)N(C)C)on1 (centres undefined)

**A:**
1. 86.84
2. -6.719

Quick batch: Percent Effect for everything below.
1. CC(C)n1cc(CN2CCCN(C(=O)C(C)n3cncn3)CC2)cn1 (centres undefined)
2. C[C@H](c1ccc(F)cc1)n1c(C2CCN(C)CC2)n[nH]c1=O

**A:**
115.2
-149.6

Would you mind listing Percent Effect for each of the following compounds?
1. CC(C)n1cc(CN2CCCN(C(=O)c3ccc[nH]3)CC2)cn1
2. CCCc1cc(C(=O)NCCN2C(=O)c3ccccc3C2=O)[nH]n1
3. C[C@H](c1ccc(Cl)cc1)n1c(C2CC2)n[nH]c1=O
4. COc1ccccc1C(=O)N1CCN(C(=O)CCn2ccnc2)CC1
5. CC[C@@H](c1ccccc1)n1c(CN)n[nH]c1=O

**A:**
1. -9.453
2. -4.22
3. -27.24
4. 1.871
5. 112.8

----------
tested on: Wolbachia pipientis; assay: Anti-Wolbachia Cell-Based Screen; type: functional; design: scale not given: in the data most compounds retested in dose-response had high values; conditions: 5 µM
Out of some 48,000 compounds screened, about 13,000 (27%) showed an effect of 50% or more. The list shows a part of the results.
Consider the following compounds; for each one, report its Percent Effect.
Answers are plain numbers, in %.

1. CCN(Cc1cccc2c1OCO2)CC1CCCO1 (stereo unspecified) = -5.577

Report Percent Effect for each item below.
1. O=C(NCC1CCOC1)c1cc(-c2cccc(Cl)c2)on1 (stereo unspecified)
2. O=C(NCC1COC2(CCOCC2)O1)c1csc(-c2cccc(Cl)c2)n1 (stereo unspecified)
3. CCc1cc(NCC(N)=O)nc(N2CCCCC2)n1
4. C[C@@H]1CN(C(=O)c2ccc(C#N)nc2)CC[C@@]1(O)C1CCOCC1
5. C[C@@H]1CN(C(=O)c2cnc(C3CC3)nc2)CC[C@@]1(O)C1CCOCC1

**A:**
10.92
108.1
3.256
-17.54
-14.06

Could I get Percent Effect for every one of these entries?
1. C[C@@H]1CN(c2ccc(C#N)cn2)CC[C@@]1(O)C1CCOCC1
2. CC(=O)N1CCC(Nc2cccc(OC(F)F)c2C)CC1
3. C[C@@H]1CN(c2ccc(Cl)cn2)CC[C@@]1(O)C1CCOCC1
4. C[C@@H]1CN(C(=O)c2c[nH]c(=O)c(Cl)c2)CC[C@@]1(O)C1CCOCC1
5. CN(C(=O)CN1CCCC1c1cnn(C)c1)C(C)(C)C#N (stereo unspecified)

**A:**
1: 124; 2: -10.39; 3: 111.4; 4: 3.711; 5: 6.976

These measurements were taken from ChEMBL document CHEMBL3988442.
